Catalogue of compounds with associated Activity
# Test system: PC-12
# ASSAY EXPLANATION: Neuroprotective activity against oxygen glucose deprivation-induced cell death in rat PC12 cells assessed as change in cell viability at 1 uM after 24 hrs by MTT assay relative to control
# Format: functional
# answer = value followed by unit

Example compounds with recorded Activity:
1. CC1CCN(Cc2c(-c3ccc(OC(F)F)cc3)no[n+]2[O-])CC1
54%
2. CC1CCN(Cc2no[n+]([O-])c2-c2ccc(C(F)(F)F)cc2)CC1
2%
3. CC1CCN(Cc2no[n+]([O-])c2-c2ccccc2)CC1
-21%
4. CC1CCN(Cc2c(-c3ccc(C(F)(F)F)cc3)no[n+]2[O-])CC1
-9%

Need Activity of CC1CCN(Cc2c(-c3ccccc3)no[n+]2[O-])CC1 , thanks.
9%
